Test system: pERK in MKN1 cells
Experiment: cells
Assay type: cell-based
Conditions: Homo sapiens, MKN-1, pERK inhibition, In-Cell Western; MKN1 or H358 cells (Table 24 does not say which); 0.5-1 hour incubation
pIC50: −log10 of the molar value.
Tick T if pIC50 is 7 or greater. Tick F if pIC50 is less than 7.

Molecule: Cc1c([C@@H](C)Nc2nnc(C)c3ccc(N4CCOCC4)cc23)cc(N)cc1C(F)(F)F [Example 15-2]
Group: T
//
Molecule: Cc1c([C@@H](C)Nc2nnc(C)c3cc(F)c(N4CCOCC4)cc23)cccc1C(F)(F)F [Example 18-2]
Group: F
//
Molecule: Cc1nnc(N[C@H](C)c2cc(N)cc(C(F)(F)F)n2)c2cc(N3CCOCC3)ccc12 [Example 16-1]
Group: F
//
Molecule: Cc1nnc(N[C@H](C)c2cccc(C(F)(F)CO)c2)c2cc(N3CCOCC3)ncc12 [Example 21-7]
Group: T
//
Molecule: COc1c(C#N)cccc1[C@@H](C)Nc1nnc(C)c2cnc(N3CCOCC3)cc12 [Example 17-1]
Group: T
//
Molecule: Cc1cc(C#N)cc([C@@H](C)Nc2nnc(C)c3cnc(N4CCOCC4)cc23)c1 [Example 21-3]
Group: F
